Exercise: state measured LD50 for each of the compounds provided.
Assay: acute toxicity in mice, i.v.
Conditions: mouse, in vivo, iv
Answer format: numeric, mg/kg implied, no suffix.

Fill blank: measured LD50 of the compound Cc1cccc(C)c1CCC1=NCCN1 is ____.
25

What LD50 value was documented for this compound, Cc1c[nH]c(CCc2cccc(C)c2C)n1 ?
35

Quick one: LD50 for Cc1ccc(CC(O)c2ncc[nH]2)cc1C (stereo not shown) ?
50

Given the entry Cc1ccc(C)c(CC(O)c2ncc[nH]2)c1 (stereo not shown) , report its measured LD50.
45

Which LD50 is listed for Cc1cccc(CCC2=NCCN2)c1C ?
30

Report LD50 for Cc1cccc(C)c1C=Cc1ncc[nH]1 please.
40

Which LD50 value belongs to Cc1cccc(C)c1CCc1ncc[nH]1 ?
20

Which LD50 reading was recorded for the compound Cc1cccc(C)c1CC(O)c1ncc[nH]1 (stereo not shown) ?
60

Suppose we examine the compound Cc1c[nH]c(CCc2c(C)cccc2C)n1 ; what LD50 value has been reported?
25

Entry Cc1ccccc1Cc1nc(C)c(C)[nH]1 : reported LD50 = ?
30

Look at this compound and give its reported LD50. Cc1ccc(CCc2ncc[nH]2)cc1C
40

# input compound: Cc1cccc(C)c1CCC(O)c1nccn1Cc1ccccc1 (stereo not shown) ; wanted: its LD50
65

Fill blank: measured LD50 of the compound Cc1ccc(C)c(CCc2ncc[nH]2)c1 is ____.
30
